test system: OVCAR8; assay: drug sensitivity score (DSS2) on cancer cell count; higher = more sensitive; extreme values may be limits of the assay; details: co-cultured fibroblast: WI38; 72 h
measurement_type: drug sensitivity score (DSS)
Numbers only, in DSS.

Examples from the recorded data:
compound: O=c1[nH]c(=O)n([C@H]2C[C@H](O)[C@@H](CO)O2)cc1F [Floxuridine]
measurement_type: drug sensitivity score
meas_value: 17.9

compound: O=C(Nc1cc(Cl)cc2c1[nH]c1cnccc12)c1cccnc1 [PS-1145]
measurement_type: drug sensitivity score
meas_value: 0

compound: CN1CCN(c2ccc3nc(-c4c(N)c5c(F)cccc5[nH]c4=O)[nH]c3c2)CC1 [Dovitinib]
measurement_type: drug sensitivity score
meas_value: 0

compound: COc1cc2c(cc1OC(C)C)[C@H](c1ccc(Cl)cc1)N(c1ccc(N(C)C[C@H]3CC[C@H](N4CCN(C)C(=O)C4)CC3)cc1)C(=O)C2 [NVP-CGM097]
measurement_type: drug sensitivity score
meas_value: 11.1

compound: COc1ccc2[nH]cc(/C=C3\C(=O)Nc4ccc(NC(=O)CCN5CCCCC5)cc43)c2c1
measurement_type: drug sensitivity score
meas_value: 9.8

compound: Cc1[nH]c2ccccc2c1CCNCc1ccc(/C=C/C(=O)NO)cc1 [Panobinostat]
measurement_type: drug sensitivity score
meas_value: 20.1

compound: CN(C)CC#Cc1ccc(OCCCc2sc(N3CCc4cccc(C(=O)Nc5nc6ccccc6s5)c4C3)nc2C(=O)O)c(F)c1
measurement_type: drug sensitivity score
meas_value: 0

Challenge: Test system OVCAR8; read-out drug sensitivity score; what value for N#CCNC(=O)c1ccc(-c2ccnc(Nc3ccc(N4CCOCC4)cc3)n2)cc1 [Momelotinib] ?
Response given: 10.9

* * *

system: OVCAR8; test: drug sensitivity score (DSS2) on cancer cell count; higher = more sensitive; extreme values may be limits of the assay; settings: co-cultured fibroblast: BJHTERT; 72 h
For each entry below, report its drug sensitivity score value.
Give bare numbers, in DSS.

compound: CNC(=O)[C@@H](NC(=O)[C@H](CC(C)C)[C@H](O)C(=O)NO)C(C)(C)C [Marimastat]
drug sensitivity score, DSS: 0.2

Give drug sensitivity score for each listed item.
1. C=CC(=O)Nc1cccc(Nc2nc(Nc3ccc(N4CCN(C(C)=O)CC4)cc3OC)ncc2C(F)(F)F)c1 [Rociletinib]
2. O=C(O)CCCCC(CCSCc1ccccc1)SCc1ccccc1 (configuration not stated) [CPI-613]
3. COc1cc2nccc(Oc3ccc(NC(=O)Nc4cc(C)on4)c(Cl)c3)c2cc1OC [Tivozanib]
4. O=C(c1cccc(Cl)c1F)N1CCN(Cc2cccc(Nc3nccs3)n2)CC1 [MK-8745]
5. Cn1c(=O)n(-c2ccc(C(C)(C)C#N)cc2)c2c3cc(-c4cnc5ccccc5c4)ccc3ncc21 [Dactolisib]

Response given:
6.7
0
2.8
12.5
13.3

* * *

tested on: OVCAR8; test: drug sensitivity score (DSS2) on cancer cell count; higher = more sensitive; extreme values may be limits of the assay; details: co-cultured fibroblast: BJHTERT; 72 h
measurement_type: drug sensitivity score (DSS)
Give bare numbers, in DSS.

Here is how some compounds turned out for drug sensitivity score.
smiles_input: c1cn2cc(-c3ccc4cn[nH]c4c3)nc(Nc3ccc(N4CCOCC4)cc3)c2n1
meas_value: 1.2

smiles_input: CC(C)(C)c1cc(NC(=O)Nc2ccc(-c3cn4c(n3)sc3cc(OCCN5CCOCC5)ccc34)cc2)no1
meas_value: 3.6

smiles_input: Cn1ncc(Cl)c1-c1cc(C(=O)N[C@H](CN)Cc2ccc(F)c(F)c2)oc1Cl
meas_value: 0.6

Consider the additional compound presented here.
Challenge: Test system OVCAR8; read-out drug sensitivity score; what value for CC#CC(=O)N1CCC[C@H]1c1nc(-c2ccc(C(=O)Nc3ccccn3)cc2)c2c(N)nccn12 ?
Response given: 0

* * *

Please respond with reported drug sensitivity score for every item in the list.
system: KURAMOCHI; experiment: drug sensitivity score (DSS2) on cancer cell count; higher = more sensitive; extreme values may be limits of the assay; details: co-cultured fibroblast: WI38; 72 h
Give bare numbers, in DSS.

Below are worked cases with known answers.
compound: Cc1sc2c(c1C)C(c1ccc(Cl)cc1)=N[C@@H](CC(=O)Nc1ccc(OCCOCCOCCOCCNc3cccc4c3C(=O)N(C3CCC(=O)NC3=O)C4=O)cc1)c1nnc(C)n1-2 (stereo partly specified)
target: KURAMOCHI
drug sensitivity score, DSS: 7.9
//
compound: O=C(c1ccc(F)c(F)c1Nc1ccc(I)cc1F)N1CC(O)([C@@H]2CCCCN2)C1
target: KURAMOCHI
drug sensitivity score, DSS: 6.4
//
compound: C=C1C[C@@H]2CC[C@@]34C[C@H]5O[C@H]6[C@@H](O3)[C@H]3O[C@H](CC[C@@H]3O[C@H]6[C@H]5O4)CC(=O)C[C@@H]3[C@@H](OC)[C@@H](C[C@H](O)CN)O[C@H]3C[C@H]3O[C@@H](CC[C@@H]1O2)C[C@@H](C)C3=C
target: KURAMOCHI
drug sensitivity score, DSS: 26.9
//
compound: CC(=O)c1c(C)c2cnc(Nc3ccc(N4CCNCC4)cn3)nc2n(C2CCCC2)c1=O
target: KURAMOCHI
drug sensitivity score, DSS: 7.5
//
compound: CCN(CC)CCNC(=O)c1c(C)[nH]c(/C=C2\C(=O)Nc3ccc(F)cc32)c1C
target: KURAMOCHI
drug sensitivity score, DSS: 0

Challenge: Item C=C1C[C@@H]2[C@H](CC[C@]3(C)C(=O)CC[C@@H]23)[C@@]2(C)C=CC(=O)C=C12 has what recorded drug sensitivity score?
Response given: 0

* * *

tested on: OVCAR8; assay: drug sensitivity score (DSS2) on cancer cell count; higher = more sensitive; extreme values may be limits of the assay; details: co-cultured fibroblast: BJHTERT; 72 h
Give measured drug sensitivity score for each item. Keep answers brief.
Your reply should be a number followed by the unit it is expressed in.

Previously resolved entries follow.
compound: Nc1cccc2c1C(=O)N(C1CCC(=O)NC1=O)C2=O (stereo not drawn) [Pomalidomide]
drug sensitivity score: 0 DSS
//
compound: C=C(c1ccc(C(=O)O)cc1)c1cc2c(cc1C)C(C)(C)CCC2(C)C
drug sensitivity score: 0 DSS
//
compound: CC(C)(C)c1nc(-c2cccc(NS(=O)(=O)c3c(F)cccc3F)c2F)c(-c2ccnc(N)n2)s1
drug sensitivity score: 0.2 DSS

Fill in drug sensitivity score for each of the 4 compounds listed.
1. C[C@]1(c2nc3c(C(N)=O)cccc3[nH]2)CCCN1
2. C[C@]12CC[C@@H]3c4ccc(O)cc4C[C@@H](CCCCCCCCC[S+]([O-])CCCC(F)(F)C(F)(F)F)[C@H]3[C@@H]1CC[C@@H]2O (stereo partly drawn)
3. Cc1cccc(-c2nn3c(c2-c2ccnc4ccc(C(N)=O)cc24)CCC3)n1
4. O=S(=O)(c1cccc2c(O)nccc12)N1CCCNCC1 [Hydroxyfasudil]

Response given:
1: 5 DSS; 2: 0 DSS; 3: 0 DSS; 4: 0 DSS

Challenge: What drug sensitivity score value was documented for this compound, Cn1c(Nc2ccc(C(F)(F)F)cc2)nc2cc(Oc3ccnc(-c4ncc(C(F)(F)F)[nH]4)c3)ccc21 ?
Response given: 2.2 DSS

* * *

Can you tell me drug sensitivity score for the items I'm about to list?
tested on: KURAMOCHI; assay: drug sensitivity score (DSS2) on cancer cell count; higher = more sensitive; extreme values may be limits of the assay; conditions: co-cultured fibroblast: WI38; 72 h
Numbers only, in DSS.

Please review the entries below; each comes with its answer.
smiles_input: CO[C@@]12[C@H](COC(N)=O)C3=C(C(=O)C(C)=C(N)C3=O)N1C[C@@H]1N[C@@H]12
measure_unit: DSS
drug sensitivity score: 0

smiles_input: CON(C)C(=O)N1N=C(c2cc(F)ccc2F)S[C@@]1(CCCN)c1ccccc1
measure_unit: DSS
drug sensitivity score: 22.4

smiles_input: Cc1cnc(-c2ccccc2C(C)C)nc1NCc1ccc(-n2ccnn2)cc1
measure_unit: DSS
drug sensitivity score: 1.3

Switching to the query record.
Challenge: Report drug sensitivity score for Cn1ncc(Cl)c1-c1cc(C(=O)N[C@H](CN)Cc2ccc(F)c(F)c2)oc1Cl please.
Response given: 4.4

* * *

Consider the following compounds; for each one, report its drug sensitivity score.
tested on: KURAMOCHI; assay: drug sensitivity score (DSS2) on cancer cell count; higher = more sensitive; extreme values may be limits of the assay; details: co-cultured fibroblast: BJHTERT; 72 h
Give bare numbers, in DSS.

// solved cases for drug sensitivity score follow
compound: COc1cc2c(NC3CCN(C(C)C)CC3)nc(N3CCC(F)(F)CC3)nc2cc1OCCCN1CCCC1
drug sensitivity score, DSS: 1.5
//
compound: CO[C@@H](C(=O)N1Cc2[nH]nc(NC(=O)c3ccc(N4CCN(C)CC4)cc3)c2C1)c1ccccc1
drug sensitivity score, DSS: 22.9
//
compound: C#Cc1cccc(Nc2ncnc3cc(OCCOC)c(OCCOC)cc23)c1
drug sensitivity score, DSS: 1.1
//
compound: N#Cc1ccc(COC[C@H]2O[C@@H](n3c(NCc4ccc(Cl)c(Cl)c4)nc4c(N)ncnc43)[C@H](O)[C@@H]2O)cc1
drug sensitivity score, DSS: 4.2
//
compound: S=c1[nH]cnc2nc[nH]c12
drug sensitivity score, DSS: 0.1
//
compound: C[C@@H](Oc1cc(-n2cnc3ccc(CN4CCN(C)CC4)cc32)sc1C(N)=O)c1ccccc1C(F)(F)F
drug sensitivity score, DSS: 28

# return drug sensitivity score for each item in the list
1. Cn1cncc1[C@@](N)(c1ccc(Cl)cc1)c1ccc2c(c1)c(-c1cccc(Cl)c1)cc(=O)n2C
2. CC(O)(CS(=O)(=O)c1ccc(F)cc1)C(=O)Nc1ccc(C#N)c(C(F)(F)F)c1 (stereo not drawn) [Bicalutamide]

Response given:
1. 14.9
2. 0
